Provide the reported AC35 of each item.
# Tested on: HEK293 LMP1 TES2 NF-kB luciferase reporter, 16 h
# assay_name: LMP1-induced NF-kB luciferase signal inhibition – cell-based, EBV LMP1, dry powder, dose response (AID 624359)
Inconclusive results are not listed.

Memo: Fc1ccc2c(c1)c1nnc(SCCN3CCOCC3)nc1n2Cc1ccccc1 , reported AC35: 10.1 µM

Memo: S=C(NCc1ccccn1)N/N=C/c1ccccn1 , reported AC35: 5.41 µM

Memo: C/C(=N\NC(=S)N1CCCCC1)c1cccc(C)n1 , reported AC35: 0.492 µM

Memo: O=C(Nc1cc(C(F)(F)F)cc(C(F)(F)F)c1)Nc1cnn(-c2ccc([N+](=O)[O-])cc2)c1C(F)(F)F , reported AC35: 40.7 µM

Memo: C[C@H](CO)N1C[C@H](C)[C@@H](CN(C)Cc2ccc(-c3ccccc3)cc2)Oc2ccc(NC(=O)Nc3cccc4ccccc34)cc2CC1=O , reported AC35: 4.13 µM

Memo: Nc1ccn([C@@H]2O[C@H](CO)[C@@H](O)C2O)c(=O)n1 (stereo not given in full) , reported AC35: 27.5 µM

Memo: COCCCNC(=O)C(C)Sc1nnc2c3cc(C)ccc3n(Cc3ccccc3F)c2n1 (stereo not given) , reported AC35: 25.8 µM

Memo: Cc1ccc(NC(=O)C2CCN(S(=O)(=O)c3ccc4c(c3)NC(=O)C(C)S4)CC2)cc1Cl (stereo not given) , reported AC35: 4.01 µM

Memo: CCc1sc(C(=O)Nc2ncccc2O)cc1C , reported AC35: 20.8 µM

Memo: O=C(CCc1ccccc1)NC(c1cccs1)c1cc(Cl)c2cccnc2c1O (stereo not given) , reported AC35: 43.9 µM

###

# Tested on: HEK293 LMP1 TES2 NF-kB luciferase reporter, 16 h
# assay_name: LMP1-induced NF-kB luciferase signal inhibition – cell-based, EBV LMP1, dry powder, dose response (AID 624359)
Records with an inconclusive call do not appear.
measured_parameter: AC35

Memo: C/C=C/C/C=C/CCC(=O)[C@H]1O[C@H]1C(N)=O , reported AC35: 13.2 µM

Memo: COc1ccccc1[C@]1(C)ON(c2ccccc2C(F)(F)F)C1=O , reported AC35: 7.88 µM

Memo: c1ccc(Cn2c3ccccc3c3nnc(SCCN4CCCCC4)nc32)cc1 , reported AC35: 11 µM

Memo: CC12CCC3C(CC=C4CC(O)CCC43CO)C1CCC2OC(=O)c1ccccc1 (stereo unspecified) , reported AC35: 6.56 µM

Memo: COc1cccc(/C=N/Nc2ncnc3c2ncn3Cc2ccccc2)c1O , reported AC35: 43.4 µM

Memo: C[C@H](CO)N1C[C@H](C)[C@@H](CN(C)CC2CC2)OCCCC[C@H](C)Oc2ccc(NC(=O)Nc3cccc4ccccc34)cc2C1=O , reported AC35: 0.541 µM

Memo: S=C(N/N=C(\c1ccccc1)c1ccccn1)N(Cc1ccccn1)Cc1ccccn1 , reported AC35: 6 µM

Memo: C[C@H](CO)N1C[C@H](C)[C@H](CN(C)C(=O)Nc2ccc(C(F)(F)F)cc2)OCCCC[C@H](C)Oc2ccc(NC(=O)Nc3ccc(F)cc3)cc2C1=O , reported AC35: 16.6 µM

Memo: CCN1CCN(C(c2cccnc2)c2cc(Cl)c3cccnc3c2O)CC1 (stereo unspecified) , reported AC35: 7.4 µM

Memo: O=C1/C(=C/c2ccncc2)SC(=S)N1Cc1ccccc1 , reported AC35: 29 µM

Memo: CC(C)=CCN(C(=O)C#Cc1ccccc1)[C@H](CO)c1ccccc1 , reported AC35: 3.79 µM

Memo: O=c1[nH]c(=O)n([C@H]2C[C@H](O)[C@@H](CO)O2)cc1C(F)(F)F , reported AC35: 8.74 µM

Memo: C/C(=N\NC(=S)N1CCN(c2ccccn2)CC1)c1ccccn1 , reported AC35: 10.5 µM

Memo: C[C@@H]1CN([C@@H](C)CO)C(=O)c2cc(NC(=O)Nc3ccc4c(c3)OCO4)ccc2O[C@H]1CN(C)CC1CCCCC1 , reported AC35: 0.738 µM

Memo: C/C(=N\NC(=S)N1CCC1)c1ccccn1 , reported AC35: 1.33 µM

Memo: C/C(=N\NC(=S)N1CCCC1)c1ccccn1 , reported AC35: 0.884 µM

Memo: CCCSc1nnc2c3ccccc3n(Cc3ccccc3)c2n1 , reported AC35: 3.4 µM

Memo: COc1ccc2[nH]c(C(=O)N/N=C/c3ccc(O)cc3O)cc2c1 , reported AC35: 9.11 µM

Memo: CCC(Sc1nnc2c3ccccc3n(Cc3ccc(Br)cc3)c2n1)C(=O)NCCCN1CCOCC1 (stereo unspecified) , reported AC35: 5.65 µM

Memo: Cc1ccc(S(=O)(=O)Nc2ccc3c(c2)C(=O)N([C@@H](C)CO)C[C@H](C)[C@@H](CN(C)C(=O)CCC(F)(F)F)OCCCC[C@H](C)O3)cc1 , reported AC35: 0.619 µM

Memo: C/C(=N\NC(=S)N1CC2CCC(CC2)C1)c1ccccn1 , reported AC35: 5.42 µM
